targetOrTestSystem: T1, 14‐3‐3ζ (human, UniProt P63104 1-245)
T1 construct: 14-3-3 zeta, human, full-length protein from the pProEx HTb-His-14-3-3 construct; Written as the protomer; tag removal is told only for the ∆C proteins; source: E. coli BL21(DE3), purified (Ni2+-NTA, dialysis)
T1 sequence (looked up): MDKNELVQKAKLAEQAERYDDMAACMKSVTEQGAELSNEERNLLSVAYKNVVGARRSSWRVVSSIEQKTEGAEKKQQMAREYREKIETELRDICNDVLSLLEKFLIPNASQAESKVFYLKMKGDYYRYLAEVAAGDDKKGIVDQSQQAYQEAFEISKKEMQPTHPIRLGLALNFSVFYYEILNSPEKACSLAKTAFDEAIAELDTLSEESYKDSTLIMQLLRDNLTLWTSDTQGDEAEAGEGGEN
assayProtocol: fluorescence polarisation; fluorescence anisotropy, direct titration: 14-3-3 protein titrated (1/2 dilution series) against 50 nM FAM-Ahx tracer peptide; 10 mM HEPES, 150 mM NaCl, 0.1% Tween 20, 0.1% BSA, pH 7.4; 384 well plates, triplicates; protein concentration as 14-3-3 monomer; 1:1 fit, biphasic curves fitted as two separate 1:1 events (Kd1, Kd2)
experimentalContext: both partners purified
[ ]: non-standard residue; d: D form. pS = N[C@@H](COP(=O)(O)O)C(=O)O; FAM = 5,6-carboxyfluorescein; Ahx = NCCCCCC(=O)O
property: pKd
Scale for pKd: -log10 of concentration given in mol/L; no unit attached.

{FAM-Ahx}-QRKRHK[pS]DSISLS-NH2 (hDM2 (human double minute 2 protein), human, residues 180-192; Tracer form used in the FA assays; source: synthetic peptide (Fmoc SPPS, HPLC purified)) [FAM‐Ahx‐hDM2_(180‐192) ^pSer186]	3.78
{FAM-Ahx}-SRRRAI[pS]ETEEN-NH2 (hDM2 (human double minute 2 protein), human, residues 160-171; Tracer form used in the FA assays; also called hDM2_(160‐171) ^Ser166; source: synthetic peptide (Fmoc SPPS, HPLC purified)) [FAM‐Ahx‐hDM2_(160‐171) ^pSer166]	4.71
{FAM-Ahx}-SKLTHSL[pS]TSDITAI-NH2 (hDMX (human double minute 4 protein, hDM4), human, residues 335-349; Tracer form used in the FA assays; source: synthetic peptide (Fmoc SPPS, HPLC purified)) [FAM‐Ahx‐hDMX_(335‐349) ^pSer342]	4.02

Here is another binder to look at.
QUERY: Form field: reported pKd of {FAM-Ahx}-DCRRTI[pS]APVVRPK-NH2 (Tracer form used in the FA assays; source: synthetic peptide (Fmoc SPPS, HPLC purified)) [FAM‐Ahx‐hDMX_(361‐374) ^pSer367]
RESULT: 6.04
